combination Emax overview
- Test system: HCC1500 (Breast Carcinoma)
- ASSAY_PROTOCOL: combination Emax (second highest fraction inhibited in the dose matrix, 72 h); higher = more inhibition; extreme values may be limits of the assay

See these solved cases before continuing.
compound="CN(CCO)CC[C@H](CSc1ccccc1)Nc1ccc(S(=O)(=O)NC(=O)c2ccc(N3CCC([C@@H](O)c4ccccc4-c4ccc(Cl)cc4)CC3)cc2)cc1S(=O)(=O)C(F)(F)F [AZD4320] + CCN(CCO)CCCOc1ccc2c(Nc3cc(CC(=O)Nc4cccc(F)c4)[nH]n3)ncnc2c1 [AZD2811] (first compound max 1 µM, 7x7, partner max 1 µM)" observed=0.997
compound="Cc1c2c(nn1C)CSCc1cc(n(C)n1)CSc1cc(c3ccccc3c1)OCCCc1c(C(=O)O)n(C)c3c-2c(Cl)ccc13 [AZD5991] + C[C@@H](Nc1cc(F)cc(F)c1)c1cc(C(=O)N(C)C)cc2c(=O)cc(N3CCOCC3)oc12 [AZD8186] (first compound max 1 µM, 7x7, partner max 3 µM)" observed=0.426
compound="Cc1cc2ncnn2cc1Nc1ncc2c(n1)n(C1CCOCC1)c(=O)n2C [AZD7648] + CCN(CCO)CCCOc1ccc2c(Nc3cc(CC(=O)Nc4cccc(F)c4)[nH]n3)ncnc2c1 [AZD2811] (first compound max 10 µM, 7x7, partner max 1 µM)" observed=0.445
compound="CN(CCO)CC[C@H](CSc1ccccc1)Nc1ccc(S(=O)(=O)NC(=O)c2ccc(N3CCC([C@@H](O)c4ccccc4-c4ccc(Cl)cc4)CC3)cc2)cc1S(=O)(=O)C(F)(F)F [AZD4320] + Cc1cc2ncnn2cc1Nc1ncc2c(n1)n(C1CCOCC1)c(=O)n2C [AZD7648] (first compound max 1 µM, 7x7, partner max 10 µM)" observed=0.998
compound="COc1cccc(OCCCN)c1-c1cc(Nc2cnc(C#N)cn2)n[nH]1 [Prexasertib] + Cc1cc2ncnn2cc1Nc1ncc2c(n1)n(C1CCOCC1)c(=O)n2C [AZD7648] (first compound max 1 µM, 7x7, partner max 10 µM)" observed=0.334
compound="Cn1cnc2c(F)c(Nc3ccc(Br)cc3Cl)c(C(=O)NOCCO)cc21 [Selumetinib] + CCN(CCO)CCCOc1ccc2c(Nc3cc(CC(=O)Nc4cccc(F)c4)[nH]n3)ncnc2c1 [AZD2811] (first compound max 10 µM, 7x7, partner max 1 µM)" observed=0.157

Reported combination Emax for HCC1500 (Breast Carcinoma), given CC1(C)CCC(CN2CCN(c3ccc(C(=O)NS(=O)(=O)c4ccc(NCC5CCOCC5)c([N+](=O)[O-])c4)c(Oc4cnc5[nH]ccc5c4)c3)CC2)=C(c2ccc(Cl)cc2)C1 [Venetoclax] + Cn1cnc2c(F)c(Nc3ccc(Br)cc3Cl)c(C(=O)NOCCO)cc21 [Selumetinib] (first compound max 1 µM, 7x7, partner max 3 µM) ?
0.612

For Cn1cnc2c(F)c(Nc3ccc(Br)cc3Cl)c(C(=O)NOCCO)cc21 [Selumetinib] + C[C@@H]1COCCN1C2=NC(=NC(=C2)C3(CC3)[S@](=N)(=O)C)C4=C5C=CNC5=NC=C4 [AZD6738] (first compound max 10 µM, 7x7, partner max 10 µM) then?
0.183

For CC1(C)CCC(CN2CCN(c3ccc(C(=O)NS(=O)(=O)c4ccc(NCC5CCOCC5)c([N+](=O)[O-])c4)c(Oc4cnc5[nH]ccc5c4)c3)CC2)=C(c2ccc(Cl)cc2)C1 [Venetoclax] + C[C@@H](Nc1cc(F)cc(F)c1)c1cc(C(=O)N(C)C)cc2c(=O)cc(N3CCOCC3)oc12 [AZD8186] (first compound max 1 µM, 7x7, partner max 3 µM) then?
0.736
